# Test system: C-C chemokine receptor type 1 (Homo sapiens, UniProt P32246)
# Sequence (P32246 whole entry): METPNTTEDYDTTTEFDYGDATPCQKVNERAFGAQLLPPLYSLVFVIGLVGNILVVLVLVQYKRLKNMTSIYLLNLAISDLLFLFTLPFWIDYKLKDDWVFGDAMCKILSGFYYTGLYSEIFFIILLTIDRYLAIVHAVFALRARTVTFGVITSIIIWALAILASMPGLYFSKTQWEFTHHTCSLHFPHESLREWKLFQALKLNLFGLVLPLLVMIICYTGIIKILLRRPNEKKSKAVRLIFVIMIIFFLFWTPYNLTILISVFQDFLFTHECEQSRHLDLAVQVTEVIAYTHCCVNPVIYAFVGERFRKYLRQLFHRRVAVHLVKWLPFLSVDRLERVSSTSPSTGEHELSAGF
# Experimental protocol: Displacement of [125I]-MIP-1alpha 125I]-MCP1 from CCR1 expressed in CHO-K1 cells by scintillation proximity assay
Measured pIC50 of individual entries
Expect pIC50 as a plain number equal to -log10 of the molar concentration.

# Molecule, Test system, pIC50
records = [
    ("Cc1noc(C)c1S(=O)(=O)NCCCN1CCC(O)(c2ccc(Cl)cc2)CC1", "C-C chemokine receptor type 1 (Homo sapiens, UniProt P32246)", 6.58),
]

Could you now look at the following molecule, please?
// sample O=C(NCCCCN1CCC(Oc2ccc(F)cc2)C1)NCc1ccc(Br)cc1 (configuration not stated) , its pIC50 was 6.41

----------
# Test system: C-C chemokine receptor type 5 (Homo sapiens)
# Sequence (P51681 whole entry): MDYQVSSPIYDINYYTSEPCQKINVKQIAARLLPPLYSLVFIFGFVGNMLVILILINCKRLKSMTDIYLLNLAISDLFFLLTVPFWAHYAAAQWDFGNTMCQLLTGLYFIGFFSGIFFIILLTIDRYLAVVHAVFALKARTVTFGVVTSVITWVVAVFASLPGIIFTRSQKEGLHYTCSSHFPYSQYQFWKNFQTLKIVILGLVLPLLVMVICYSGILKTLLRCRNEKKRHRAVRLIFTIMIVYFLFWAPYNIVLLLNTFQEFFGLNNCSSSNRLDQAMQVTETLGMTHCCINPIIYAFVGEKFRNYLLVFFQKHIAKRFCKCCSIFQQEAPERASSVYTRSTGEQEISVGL
# Experimental protocol: Displacement of [125I]-MIP-1- alpha from CCR5 expressed in CHO K1 cells by scintillation proximity assay
Measured pIC50 of individual entries
Expect pIC50 as a plain number equal to -log10 of the molar concentration.

# Chemical structure, Test system, pIC50
data = [
    ("COc1ccc(OC)c(S(=O)(=O)N2CCC(CN3CCC(Cc4ccc(F)cc4)CC3)CC2)c1", "C-C chemokine receptor type 5 (Homo sapiens)", 5.55),
    ("N#Cc1cccc(C(=O)NCCCN2CCC(COCc3ccc(F)cc3)CC2)c1", "C-C chemokine receptor type 5 (Homo sapiens)", 6.00),
]

Could you now look at the following compound, please?
// sample COc1ccc(C)cc1S(=O)(=O)N1CCC(CN2CCC(c3ccc(F)cc3)CC2)CC1 , its pIC50 was 5.89

----------
Measured pIC50 of individual entries
# Test system: C-C chemokine receptor type 2 (Homo sapiens, UniProt P41597)
# Sequence (P41597 whole entry): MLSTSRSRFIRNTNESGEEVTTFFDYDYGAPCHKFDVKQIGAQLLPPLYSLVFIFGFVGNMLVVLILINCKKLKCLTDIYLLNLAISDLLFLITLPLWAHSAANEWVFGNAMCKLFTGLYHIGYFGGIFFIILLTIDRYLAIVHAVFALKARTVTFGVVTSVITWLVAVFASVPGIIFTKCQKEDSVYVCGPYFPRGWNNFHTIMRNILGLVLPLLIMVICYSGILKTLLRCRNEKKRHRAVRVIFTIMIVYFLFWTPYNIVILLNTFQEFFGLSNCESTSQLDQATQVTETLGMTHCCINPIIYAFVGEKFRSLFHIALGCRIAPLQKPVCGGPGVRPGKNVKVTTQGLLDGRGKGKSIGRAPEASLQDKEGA
# Experimental protocol: Displacement of [125I]-MIP-1alpha 125I]-MCP1 from CCR2 expressed in CHO ducX#98 cells by scintillation proximity assay
Expect pIC50 as a plain number equal to -log10 of the molar concentration.

# Chemical structure, Test system, Number
data = [
    ("O=C(NCCCCN1CCC(Cc2ccc(F)cc2)CC1)Nc1ccc(OC(F)(F)F)cc1", "C-C chemokine receptor type 2 (Homo sapiens, UniProt P41597)", 5.73),
]

// sample O=C(NCCCN1CCC(c2ccc(F)cc2)CC1)C1=Cc2cc(Br)ccc2OCC1 , its pIC50 was 6.03

----------
# Test system: C-C chemokine receptor type 3 (Homo sapiens, UniProt P51677)
# Sequence (P51677 whole entry): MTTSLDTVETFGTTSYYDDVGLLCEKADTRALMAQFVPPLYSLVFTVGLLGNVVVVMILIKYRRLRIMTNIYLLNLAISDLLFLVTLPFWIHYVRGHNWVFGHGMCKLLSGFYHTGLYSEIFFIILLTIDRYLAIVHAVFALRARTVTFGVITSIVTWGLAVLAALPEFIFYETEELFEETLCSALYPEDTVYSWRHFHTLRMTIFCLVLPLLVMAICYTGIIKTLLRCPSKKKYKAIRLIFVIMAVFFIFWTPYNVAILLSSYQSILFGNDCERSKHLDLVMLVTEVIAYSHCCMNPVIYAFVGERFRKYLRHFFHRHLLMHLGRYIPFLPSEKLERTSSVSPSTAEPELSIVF
# Experimental protocol: Displacement of [125I]-eotaxin from CCR3 expressed in RBL-2H3 cells by scintillation proximity assay
Measured log10 IC50 of individual entries
Heads up, the numbers here are log10 of IC50 in nM units.

Solved cases below.
# Compound, Metric name, Number
rows = [
    ("O=C(NCCCCN1CCC(Oc2ccc(F)cc2)C1)Nc1ccc(F)c(F)c1 (stereo not given)", "log10 IC50", 1.88),
    ("O=C(NCCCN1CCC(c2ccc(F)cc2)CC1)C1=Cc2cc(Br)ccc2OCC1", "log10 IC50", 3.00),
    ("COc1ccc(Cl)cc1NC(=O)NCCCCN(C)Cc1ccc(F)cc1", "log10 IC50", 1.91),
]

// sample COc1ccc(OC)c(S(=O)(=O)N2CCC(CN3CCN(Cc4ccc(F)cc4)CC3)CC2)c1 , its log10 IC50 was 1.81

// sample COc1ccc(OC)c(S(=O)(=O)N2CCC(CN3CCC(Cc4ccc(F)cc4)CC3)CC2)c1 , its log10 IC50 was 3.08
